experiment: in vitro; assay type: cell-based
Where a SMILES comes first, the peptide text is derived from it. Bridges are numbered along the chain shown (N, C = ends). [ ]: non-standard residue; d: D form. 2Nal = N[C@@H](Cc1ccc2ccccc2c1)C(=O)O; Cit = NC(=O)NCCC[C@H](N)C(=O)O
Some compounds, each annotated with its measured CC50.

Compound	Readout Units	CC50
N=C(N)NCCC[C@H](NC(=O)[C@@H]1CSSC[C@H](NC(=O)[C@H](Cc2ccc3ccccc3c2)NC(=O)[C@H](CCCNC(=N)N)NC(=O)[C@@H](N)CCCNC(=N)N)C(=O)N[C@@H](Cc2ccc(O)cc2)C(=O)N[C@@H](CCCNC(N)=O)C(=O)N[C@@H](CCCCN)C(=O)N2CCC[C@@H]2C(=O)N2CCC[C@H]2C(=O)N[C@@H](Cc2ccc(O)cc2)C(=O)N[C@@H](CCCNC(=N)N)C(=O)N[C@@H](CCCNC(N)=O)C(=O)N1)C(N)=O [Example 7] (H-RR[2Nal]CY[Cit]K[dP]PYR[Cit]CR-NH2; disulfide 4-13; N-terminus assumed)	µM	56
N=C(N)NCCC[C@H](NC(=O)[C@@H]1CSSC[C@H](NC(=O)[C@H](Cc2ccc3ccccc3c2)NC(=O)[C@H](CCCNC(=N)N)NC(=O)[C@@H](N)CCCNC(=N)N)C(=O)N[C@@H](Cc2ccc(O)cc2)C(=O)N[C@@H](CCCCN)C(=O)N[C@H](CCCCN)C(=O)N2CCC[C@H]2C(=O)N[C@@H](Cc2ccc(O)cc2)C(=O)N[C@@H](CCCNC(N)=O)C(=O)N1)C(N)=O [Example 1] (H-RR[2Nal]CYK[dK]PY[Cit]CR-NH2; disulfide 4-11; N-terminus assumed)	µM	75

====

experiment: in vitro; assay type: cell-based
Where a SMILES comes first, the peptide text is derived from it. Bridges are numbered along the chain shown (N, C = ends). [ ]: non-standard residue; d: D form. Phe(4-NH2) = Nc1ccc(C[C@H](N)C(=O)O)cc1; 2Nal = N[C@@H](Cc1ccc2ccccc2c1)C(=O)O; Cit = NC(=O)NCCC[C@H](N)C(=O)O
Reported Property: CC50 at 48 h

Molecule	Reported Property	Recorded Result
N=C(N)NCCC[C@H](NC(=O)[C@@H]1CSSC[C@H](NC(=O)[C@H](Cc2ccc(N)cc2)NC(=O)[C@H](CCCNC(=N)N)NC(=O)[C@@H](N)CCCNC(=N)N)C(=O)N[C@@H](Cc2ccc(O)cc2)C(=O)N[C@@H](CCCNC(N)=O)C(=O)N[C@@H](CCCCN)C(=O)N2CCC[C@@H]2C(=O)N2CCC[C@H]2C(=O)N[C@@H](Cc2ccc(O)cc2)C(=O)N[C@@H](CCCNC(=N)N)C(=O)N[C@@H](CCCNC(N)=O)C(=O)N1)C(N)=O [Example 12] (H-RR[Phe(4-NH2)]CY[Cit]K[dP]PYR[Cit]CR-NH2; disulfide 4-13)	CC50 at 48 h	226 µM
N=C(N)NCCC[C@H](NC(=O)[C@@H]1CSSC[C@H](NC(=O)[C@H](Cc2ccc3ccccc3c2)NC(=O)[C@H](CCCNC(=N)N)NC(=O)[C@@H](N)CCCNC(=N)N)C(=O)N[C@@H](Cc2ccc(O)cc2)C(=O)N[C@@H](CCCCN)C(=O)N2CCC[C@@H]2C(=O)N2CCC[C@H]2C(=O)N[C@@H](Cc2ccc(O)cc2)C(=O)N[C@@H](CCCNC(=N)N)C(=O)N1)C(N)=O [Example 4] (H-RR[2Nal]CYK[dP]PYRCR-NH2; disulfide 4-11; N-terminus assumed)	CC50 at 48 h	> 300 µM
CC(=O)N[C@@H](CCCNC(=N)N)C(=O)N[C@@H](CCCNC(=N)N)C(=O)N[C@@H](Cc1ccc2ccccc2c1)C(=O)N[C@H]1CSSC[C@@H](C(=O)N[C@@H](CCCNC(=N)N)C(N)=O)NC(=O)[C@H](CCCNC(N)=O)NC(=O)[C@H](CCCNC(=N)N)NC(=O)[C@H](Cc2ccc(O)cc2)NC(=O)[C@@H]2CCCN2C(=O)[C@H]2CCCN2C(=O)[C@H](CCCCN)NC(=O)[C@H](CCCNC(N)=O)NC(=O)[C@H](Cc2ccc(O)cc2)NC1=O [Example 8] (Ac-RR[2Nal]CY[Cit]K[dP]PYR[Cit]CR-NH2; disulfide 4-13)	CC50 at 48 h	226 µM
N=C(N)NCCC[C@H](NC(=O)[C@@H]1CSSC[C@H](NC(=O)[C@H](Cc2ccc3ccccc3c2)NC(=O)[C@H](CCCNC(=N)N)NC(=O)[C@@H](N)CCCNC(=N)N)C(=O)N[C@@H](Cc2ccc(O)cc2)C(=O)N[C@@H](CCCNC(N)=O)C(=O)N[C@@H](CCCCN)C(=O)N2CCC[C@@H]2C(=O)N2CCC[C@H]2C(=O)N[C@@H](Cc2ccc(O)cc2)C(=O)N[C@@H](CCCNC(=N)N)C(=O)N[C@@H](CCCNC(N)=O)C(=O)N1)C(=O)O [Example 20] (H-RR[2Nal]CY[Cit]K[dP]PYR[Cit]CR-OH; disulfide 4-13)	CC50 at 48 h	138 µM

====

target: CXCR4 (Homo sapiens); construct: expressed in transfected cells; assay: Ca2+ assay: CXCR4 antagonizing activity of the peptides; type: cell-based; settings: CXCR4 transfected pre-B cells, Fura-2 fluorescence, 37° C.
Sequence (P61073 whole entry): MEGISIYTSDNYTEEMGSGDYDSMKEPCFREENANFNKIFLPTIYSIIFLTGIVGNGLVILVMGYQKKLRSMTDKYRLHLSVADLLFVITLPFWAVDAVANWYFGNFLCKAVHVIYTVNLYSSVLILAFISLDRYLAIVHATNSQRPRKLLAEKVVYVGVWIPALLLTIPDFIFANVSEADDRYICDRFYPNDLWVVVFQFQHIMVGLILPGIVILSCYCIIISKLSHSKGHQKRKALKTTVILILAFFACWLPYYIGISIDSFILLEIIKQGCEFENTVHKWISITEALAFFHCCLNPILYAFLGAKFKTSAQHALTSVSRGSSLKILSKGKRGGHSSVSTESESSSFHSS
Where a SMILES comes first, the peptide text is derived from it. Bridges are numbered along the chain shown (N, C = ends). [ ]: non-standard residue; d: D form. Phe(4-NH2) = Nc1ccc(C[C@H](N)C(=O)O)cc1; 2Nal = N[C@@H](Cc1ccc2ccccc2c1)C(=O)O; Cit = NC(=O)NCCC[C@H](N)C(=O)O

Molecule	IC50 (nM)
N=C(N)NCCC[C@H](NC(=O)[C@@H]1CSSC[C@H](NC(=O)[C@H](Cc2ccc3ccccc3c2)NC(=O)[C@H](CCCNC(=N)N)NC(=O)[C@@H](N)CCCNC(=N)N)C(=O)N[C@@H](Cc2ccc(O)cc2)C(=O)N[C@@H](CCCNC(N)=O)C(=O)N[C@@H](CCCCN)C(=O)N2CCC[C@H]2C(=O)N2CCC[C@H]2C(=O)N[C@@H](Cc2ccc(O)cc2)C(=O)N[C@@H](CCCNC(=N)N)C(=O)N[C@@H](CCCNC(N)=O)C(=O)N1)C(N)=O [Example 24] (H-RR[2Nal]CY[Cit]KPPYR[Cit]CR-NH2; disulfide 4-13)	100
N=C(N)NCCC[C@H](NC(=O)[C@@H]1CSSC[C@H](NC(=O)[C@H](Cc2ccc3ccccc3c2)NC(=O)[C@H](CCCNC(=N)N)NC(=O)[C@@H](N)CCCNC(=N)N)C(=O)N[C@@H](Cc2ccc(O)cc2)C(=O)N[C@@H](CCCCN)C(=O)N2CCC[C@@H]2C(=O)N2CCC[C@H]2C(=O)N[C@@H](Cc2ccc(O)cc2)C(=O)N[C@@H](CCCNC(=N)N)C(=O)N1)C(N)=O [Example 4] (H-RR[2Nal]CYK[dP]PYRCR-NH2; disulfide 4-11; N-terminus assumed)	848
N=C(N)NCCC[C@H](NC(=O)[C@@H]1CSSC[C@H](NC(=O)[C@H](Cc2ccc(N)cc2)NC(=O)[C@H](CCCNC(=N)N)NC(=O)[C@@H](N)CCCNC(=N)N)C(=O)N[C@@H](Cc2ccc(O)cc2)C(=O)N[C@@H](CCCNC(N)=O)C(=O)N[C@@H](CCCCN)C(=O)N2CCC[C@@H]2C(=O)N2CCC[C@H]2C(=O)N[C@@H](Cc2ccc(O)cc2)C(=O)N[C@@H](CCCNC(=N)N)C(=O)N[C@@H](CCCNC(N)=O)C(=O)N1)C(N)=O [Example 12] (H-RR[Phe(4-NH2)]CY[Cit]K[dP]PYR[Cit]CR-NH2; disulfide 4-13)	13.9

====

system: 'CCR5' cells / Hut/4-3 cells co-cultivation; assay: FIGS-Assay (co-cultivated cell cultures, beta-galactosidase/ONPG read-out); format: cell-based; settings: at 200 nM; 48 hours of co-cultivation
*1 amine or outer side, *2 acyl side, *3 side chain or, on linkers, in order; H or OH if unused. Where a SMILES comes first, the peptide text is derived from it. Bridges are numbered along the chain shown (N, C = ends). [ ]: non-standard residue; d: D form. NHCH2(1,3-C6H4)CH2CO = O=C(Cc1cccc(CN[*:1])c1)[*:2]; 2Nal = N[C@@H](Cc1ccc2ccccc2c1)C(=O)O; Cit = NC(=O)NCCC[C@H](N)C(=O)O

Compound	FIGS % inhibition at 200 nM, %
CC(=O)N[C@@H](CCCNC(=N)N)C(=O)N[C@@H](CCCNC(=N)N)C(=O)N[C@@H](Cc1ccc2ccccc2c1)C(=O)N[C@H]1CSSC[C@@H](C(=O)N[C@@H](CCCNC(=N)N)C(N)=O)NC(=O)[C@H](CCCNC(N)=O)NC(=O)[C@H](CCCNC(=N)N)NC(=O)[C@H](Cc2ccc(O)cc2)NC(=O)[C@@H]2CCCN2C(=O)[C@H]2CCCN2C(=O)[C@H](CCCCN)NC(=O)[C@H](CCCNC(N)=O)NC(=O)[C@H](Cc2ccc(O)cc2)NC1=O [Example 8] (Ac-RR[2Nal]CY[Cit]K[dP]PYR[Cit]CR-NH2; disulfide 4-13)	90.6
N=C(N)NCCC[C@H](NC(=O)[C@@H]1CSSC[C@H](NC(=O)[C@H](Cc2ccc3ccccc3c2)NC(=O)[C@H](CCCNC(=N)N)NC(=O)[C@@H](N)CCCNC(=N)N)C(=O)N[C@@H](Cc2ccc(O)cc2)C(=O)N[C@@H](CCCNC(N)=O)C(=O)N[C@@H](CCCCN)C(=O)N2CCC[C@H]2C(=O)N2CCC[C@H]2C(=O)N[C@@H](Cc2ccc(O)cc2)C(=O)N[C@@H](CCCNC(=N)N)C(=O)N[C@@H](CCCNC(N)=O)C(=O)N1)C(N)=O [Example 24] (H-RR[2Nal]CY[Cit]KPPYR[Cit]CR-NH2; disulfide 4-13)	17.1
N=C(N)NCCC[C@H](NC(=O)[C@@H]1CSSC[C@H](NC(=O)[C@H](Cc2ccc3ccccc3c2)NC(=O)[C@H](CCCNC(=N)N)NC(=O)[C@@H](N)CCCNC(=N)N)C(=O)N[C@@H](Cc2ccc(O)cc2)C(=O)N[C@@H](CCCNC(N)=O)C(=O)N[C@@H](CCCCN)C(=O)NCc2cccc(c2)CC(=O)N[C@@H](Cc2ccc(O)cc2)C(=O)N[C@@H](CCCNC(=N)N)C(=O)N[C@@H](CCCNC(N)=O)C(=O)N1)C(N)=O [Example 22] (H-RR[2Nal]CY[Cit]K[NHCH2(1,3-C6H4)CH2CO]YR[Cit]CR-NH2; disulfide 4-12)	22.5
N=C(N)NCCC[C@H](NC(=O)[C@@H]1CSSC[C@H](NC(=O)[C@H](Cc2ccc3ccccc3c2)NC(=O)[C@H](CCCNC(=N)N)NC(=O)[C@@H](N)CCCNC(=N)N)C(=O)N[C@@H](Cc2ccc(O)cc2)C(=O)N[C@@H](CCCCN)C(=O)N2CCC[C@@H]2C(=O)N2CCC[C@H]2C(=O)N[C@@H](Cc2ccc(O)cc2)C(=O)N[C@@H](CCCNC(=N)N)C(=O)N1)C(N)=O [Example 4] (H-RR[2Nal]CYK[dP]PYRCR-NH2; disulfide 4-11; N-terminus assumed)	26.0
